All figures here come from paper PMC10373466.

Please respond with reported IC50 at 24 h for every item in the list.
test: In vitro hepatotoxicity MTT assay; settings: human
The reply should contain only the number, in µM.

# return recorded IC50 at 24 h for input Nc1c2c(nc3c1C(c1cccc([N+](=O)[O-])c1)c1ccc(OCC(=O)c4ccc(Cl)cc4)cc1O3)CCCC2 (centres unmarked) [5c]
188

Query IC50 at 24 h for Cc1ccc(S(=O)(=O)Oc2ccc3c(c2)Oc2nc4c(c(N)c2C3c2ccc(Cl)c(Cl)c2)CCCC4)cc1 (centres unmarked) [4n]
67.4

Determine from records and report IC50 at 24 h for Nc1c2c(nc3ccccc13)CCCC2 [Tacrine, reference compound]
17.5

Please supply the value of reported IC50 at 24 h for the item Nc1c2c(nc3c1C(c1ccc(Cl)c(Cl)c1)c1ccc(OCC(=O)c4ccccc4)cc1O3)CCCC2 (centres unmarked) [5i]
113

Provide IC50 at 24 h value for the following compound: COc1cccc2c1C(=O)c1c(O)c3c(c(O)c1C2=O)C[C@@](O)(C(=O)CO)C[C@@H]3O[C@H]1C[C@H](N)[C@H](O)[C@H](C)O1 [Doxorubicin, reference compound]
4.5

Determine its reported IC50 at 24 h: Nc1c2c(nc3c1C(c1cccc([N+](=O)[O-])c1)c1ccc(OS(=O)(=O)c4ccc(F)cc4)cc1O3)CCCC2 (centres unmarked) [4c]
78.3

Quick one: give measured IC50 at 24 h for Nc1c2c(nc3c1C(c1ccc(Cl)c(Cl)c1)c1ccc(OCC(=O)c4ccc(Cl)cc4)cc1O3)CCCC2 (centres unmarked) [5d]
154

Consider the compound COc1ccc(S(=O)(=O)Oc2ccc3c(c2)Oc2nc4c(c(N)c2C3c2cccc(OC)c2)CCCC4)cc1 (centres unmarked) [4g] and give its recorded IC50 at 24 h.
126

###

Field: pIC50. Provide a value for each of the compounds that follow.
target: Aβ1–42 (Homo sapiens); assay: Self-induced Aβ1–42 aggregation inhibition; details: Aβ1–42 aggregation inhibition IC50, self-induced aggregation
Recall that pIC50 is obtained by taking minus log10 of the concentration measured in molar.

Report pIC50, nothing else, for this compound: Nc1c2c(nc3c1C(c1ccc(Cl)c(Cl)c1)c1ccc(OCC(=O)c4ccc(Cl)cc4)cc1O3)CCCC2 (stereo not drawn) [5d]
6.13

Specify measured pIC50 for Nc1c2c(nc3c1C(c1ccc(Cl)c(Cl)c1)c1ccc(OCC(=O)c4ccccc4)cc1O3)CCCC2 (stereo not drawn) [5i] .
5.85

Provide only the value of recorded pIC50 for Nc1c2c(nc3c1C(c1cccc([N+](=O)[O-])c1)c1ccc(OCC(=O)c4ccc(Cl)cc4)cc1O3)CCCC2 (stereo not drawn) [5c]
5.55

Recall and state the measured pIC50 for Cc1ccc(S(=O)(=O)Oc2ccc3c(c2)Oc2nc4c(c(N)c2C3c2ccc(Cl)c(Cl)c2)CCCC4)cc1 (stereo not drawn) [4n] .
4.76

Could you please provide reported pIC50 for Nc1c2c(nc3c1C(c1cccc([N+](=O)[O-])c1)c1ccc(OS(=O)(=O)c4ccc(F)cc4)cc1O3)CCCC2 (stereo not drawn) [4c] ? Thanks!
5.37

Complete the entry with pIC50 for COc1ccc(S(=O)(=O)Oc2ccc3c(c2)Oc2nc4c(c(N)c2C3c2cccc(OC)c2)CCCC4)cc1 (stereo not drawn) [4g]
4.93

###

Answer each item with its documented pIC50.
# pIC50 = -log10(concentration in molar units)

State recorded pIC50 with hAChE (Homo sapiens), entry Nc1c2c(nc3c1C(c1cccc([N+](=O)[O-])c1)c1ccc(OCC(=O)c4ccccc4)cc1O3)CCCC2 (centres unmarked) , no comment.
4.99

State measured pIC50 of the compound COc1cccc(C2c3ccc(O)cc3Oc3nc4c(c(N)c32)CCCC4)c1 (centres unmarked) with hAChE (Homo sapiens).
4.57

Print hAChE (Homo sapiens) pIC50 for COc1ccc(S(=O)(=O)Oc2ccc3c(c2)Oc2nc4c(c(N)c2C3c2cccc(OC)c2)CCCC4)cc1 (centres unmarked) .
6.52

System hAChE (Homo sapiens). Read-out pIC50. Item COc1ccc(S(=O)(=O)Oc2ccc3c(c2)Oc2nc4c(c(N)c2C3c2ccc(Cl)c(Cl)c2)CCCC4)cc1 (centres unmarked) . Report value.
5.66

State measured pIC50 of the compound COc1ccccc1C1c2ccc(OS(=O)(=O)c3ccccc3)cc2Oc2nc3c(c(N)c21)CCCC3 (centres unmarked) with hAChE (Homo sapiens).
4.62

Provide pIC50, system hAChE (Homo sapiens), entry COc1cccc(C2c3ccc(OS(=O)(=O)c4ccc(C)cc4)cc3Oc3nc4c(c(N)c32)CCCC4)c1 (centres unmarked)
5.58

State pIC50 on hAChE (Homo sapiens). Entry: COc1ccccc1C1c2ccc(OS(=O)(=O)c3ccc(C)cc3)cc2Oc2nc3c(c(N)c21)CCCC3 (centres unmarked)
5.99

Specify the recorded pIC50 for COc1cccc(C2c3ccc(OS(=O)(=O)c4ccc(F)cc4)cc3Oc3nc4c(c(N)c32)CCCC4)c1 (centres unmarked) , system: hAChE (Homo sapiens).
4.87

###

Please provide measured inhibition at 10 µM for the entries that follow.
biological target: Aβ1–42 (Homo sapiens, UniProt P05067); assay: Self-induced Aβ1–42 aggregation inhibition; type: biochemical; conditions: read-out: Aβ1–42 (% inhibition at 10 μM)
Sequence (P05067 672-713): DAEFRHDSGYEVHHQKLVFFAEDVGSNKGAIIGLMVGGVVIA
Numeric answer only, unit % assumed.

Kindly indicate its recorded inhibition at 10 µM. Item: Nc1c2c(nc3c1C(c1ccc(Cl)c(Cl)c1)c1ccc(OCC(=O)c4ccc(Cl)cc4)cc1O3)CCCC2 (stereo not shown) [5d]
76

Look up and report measured inhibition at 10 µM for this entry: Cc1ccc(S(=O)(=O)Oc2ccc3c(c2)Oc2nc4c(c(N)c2C3c2ccc(Cl)c(Cl)c2)CCCC4)cc1 (stereo not shown) [4n]
40

Entry Nc1c2c(nc3c1C(c1ccc(Cl)c(Cl)c1)c1ccc(OCC(=O)c4ccccc4)cc1O3)CCCC2 (stereo not shown) [5i] needs its inhibition at 10 µM filled in; supply it.
68

Consider the compound Nc1c2c(nc3c1C(c1cccc([N+](=O)[O-])c1)c1ccc(OS(=O)(=O)c4ccc(F)cc4)cc1O3)CCCC2 (stereo not shown) [4c] and give its recorded inhibition at 10 µM.
47

###

biological target: hBuChE (Homo sapiens); assay: In vitro BuChE inhibition assay; type: biochemical
Sequence (P06276 29-602): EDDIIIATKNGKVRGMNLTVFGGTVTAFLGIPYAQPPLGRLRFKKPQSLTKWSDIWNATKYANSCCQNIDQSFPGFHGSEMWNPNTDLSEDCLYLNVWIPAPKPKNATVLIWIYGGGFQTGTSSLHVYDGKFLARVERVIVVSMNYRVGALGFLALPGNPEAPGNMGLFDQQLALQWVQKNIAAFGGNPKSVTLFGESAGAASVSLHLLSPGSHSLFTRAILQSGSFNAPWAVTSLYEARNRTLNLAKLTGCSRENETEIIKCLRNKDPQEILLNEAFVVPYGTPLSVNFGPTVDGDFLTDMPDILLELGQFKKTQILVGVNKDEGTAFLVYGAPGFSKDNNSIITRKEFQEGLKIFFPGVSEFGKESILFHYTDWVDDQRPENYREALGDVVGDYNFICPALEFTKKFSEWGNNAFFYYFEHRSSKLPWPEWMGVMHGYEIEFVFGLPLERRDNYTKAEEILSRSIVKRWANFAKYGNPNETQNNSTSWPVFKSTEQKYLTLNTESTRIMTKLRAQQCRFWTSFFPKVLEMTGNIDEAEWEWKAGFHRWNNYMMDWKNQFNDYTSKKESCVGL
QUANTITY_NAME: BuChE SI (selectivity index) = IC50 of AChE/IC50 of BuChE
Provide a numeric answer; units are not to be included.

Provide BuChE SI (selectivity index) = IC50 of AChE/IC50 of BuChE value for the following compound: Nc1c2c(nc3c1C(c1cccc([N+](=O)[O-])c1)c1ccc(OCC(=O)c4ccc(Cl)cc4)cc1O3)CCCC2 (stereo not drawn)
5.37

State its BuChE SI (selectivity index) = IC50 of AChE/IC50 of BuChE for this compound: Nc1c2c(nc3c1C(c1cccc([N+](=O)[O-])c1)c1ccc(OS(=O)(=O)c4ccc(F)cc4)cc1O3)CCCC2 (stereo not drawn)
0.90

Return BuChE SI (selectivity index) = IC50 of AChE/IC50 of BuChE for the following compound: Nc1c2c(nc3c1C(c1ccc(Cl)c(Cl)c1)c1ccc(OCC(=O)c4ccccc4)cc1O3)CCCC2 (stereo not drawn)
2.12

For the compound Nc1c2c(nc3c1C(c1ccc(Cl)c(Cl)c1)c1ccc(OCC(=O)c4ccc(Cl)cc4)cc1O3)CCCC2 (stereo not drawn) , give its measured BuChE SI (selectivity index) = IC50 of AChE/IC50 of BuChE value.
1.69

Could you please provide reported BuChE SI (selectivity index) = IC50 of AChE/IC50 of BuChE for COc1ccc(S(=O)(=O)Oc2ccc3c(c2)Oc2nc4c(c(N)c2C3c2cccc(OC)c2)CCCC4)cc1 (stereo not drawn) ? Thanks!
0.85

Read off the recorded BuChE SI (selectivity index) = IC50 of AChE/IC50 of BuChE for Cc1ccc(S(=O)(=O)Oc2ccc3c(c2)Oc2nc4c(c(N)c2C3c2ccc(Cl)c(Cl)c2)CCCC4)cc1 (stereo not drawn)
2.59

###

target: hAChE (Homo sapiens, UniProt P22303); experiment: In vitro AChE inhibition assay; assay type: biochemical
Sequence (P22303 32-614): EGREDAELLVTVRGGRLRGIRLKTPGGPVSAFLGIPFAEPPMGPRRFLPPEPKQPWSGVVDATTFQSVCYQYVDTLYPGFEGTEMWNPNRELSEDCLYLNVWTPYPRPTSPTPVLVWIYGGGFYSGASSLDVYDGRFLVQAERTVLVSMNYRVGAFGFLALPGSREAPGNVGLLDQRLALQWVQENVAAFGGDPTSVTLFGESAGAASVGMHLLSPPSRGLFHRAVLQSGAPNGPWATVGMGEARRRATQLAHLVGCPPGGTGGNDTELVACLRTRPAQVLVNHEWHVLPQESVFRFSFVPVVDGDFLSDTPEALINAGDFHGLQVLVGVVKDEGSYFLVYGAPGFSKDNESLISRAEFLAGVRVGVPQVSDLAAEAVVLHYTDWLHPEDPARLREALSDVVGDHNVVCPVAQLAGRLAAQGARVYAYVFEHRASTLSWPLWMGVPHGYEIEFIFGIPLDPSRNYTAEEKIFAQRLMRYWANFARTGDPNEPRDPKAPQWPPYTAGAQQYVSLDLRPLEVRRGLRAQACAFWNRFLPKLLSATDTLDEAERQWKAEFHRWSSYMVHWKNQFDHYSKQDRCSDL
For each entry below, report its AChE SI (selectivity index) = IC50 of BuChE/IC50 of AChE value.
# respond with the number and nothing more

Name the recorded AChE SI (selectivity index) = IC50 of BuChE/IC50 of AChE of the item Nc1c2c(nc3c1C(c1ccc(Cl)c(Cl)c1)c1ccc(OCC(=O)c4ccc(Cl)cc4)cc1O3)CCCC2 (stereo not drawn) in your answer.
0.59

Tell me AChE SI (selectivity index) = IC50 of BuChE/IC50 of AChE reported for Nc1c2c(nc3c1C(c1cccc([N+](=O)[O-])c1)c1ccc(OCC(=O)c4ccc(Cl)cc4)cc1O3)CCCC2 (stereo not drawn)
0.19

Write down AChE SI (selectivity index) = IC50 of BuChE/IC50 of AChE measured for item Cc1ccc(S(=O)(=O)Oc2ccc3c(c2)Oc2nc4c(c(N)c2C3c2ccc(Cl)c(Cl)c2)CCCC4)cc1 (stereo not drawn)
0.38

Tell me measured AChE SI (selectivity index) = IC50 of BuChE/IC50 of AChE for COc1ccc(S(=O)(=O)Oc2ccc3c(c2)Oc2nc4c(c(N)c2C3c2cccc(OC)c2)CCCC4)cc1 (stereo not drawn) please.
1.18

Report measured AChE SI (selectivity index) = IC50 of BuChE/IC50 of AChE; entry is Nc1c2c(nc3c1C(c1cccc([N+](=O)[O-])c1)c1ccc(OS(=O)(=O)c4ccc(F)cc4)cc1O3)CCCC2 (stereo not drawn)
1.11

Please supply the value of reported AChE SI (selectivity index) = IC50 of BuChE/IC50 of AChE for the item Nc1c2c(nc3c1C(c1ccc(Cl)c(Cl)c1)c1ccc(OCC(=O)c4ccccc4)cc1O3)CCCC2 (stereo not drawn)
0.47
